- ASSAY_TARGET: Bombyx mori EcR (VP16 fusion, switch construct CVBE) with 6XEcRE LacZ reporter (Bombyx mori, UniProt P49881)
- Construct: expressed in transfected cells; host or cells: Human 293 kidney (HEK-293) cells, retrovirally infected, clone Z3
- Sequence (P49881 86-606 limits assumed): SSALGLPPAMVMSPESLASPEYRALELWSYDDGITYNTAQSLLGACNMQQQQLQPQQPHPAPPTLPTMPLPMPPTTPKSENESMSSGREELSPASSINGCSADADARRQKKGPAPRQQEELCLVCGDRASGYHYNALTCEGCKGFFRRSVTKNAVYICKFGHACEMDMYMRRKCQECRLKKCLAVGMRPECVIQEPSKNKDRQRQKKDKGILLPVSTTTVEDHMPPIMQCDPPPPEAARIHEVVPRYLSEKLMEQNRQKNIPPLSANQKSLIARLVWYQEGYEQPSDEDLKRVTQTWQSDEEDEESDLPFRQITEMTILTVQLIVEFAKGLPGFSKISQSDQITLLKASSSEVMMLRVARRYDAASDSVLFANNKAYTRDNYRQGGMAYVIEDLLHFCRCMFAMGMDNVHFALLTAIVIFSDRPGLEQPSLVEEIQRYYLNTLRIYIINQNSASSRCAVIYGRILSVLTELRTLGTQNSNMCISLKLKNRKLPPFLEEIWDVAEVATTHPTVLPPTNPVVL
- Sequence (P19793 whole entry partner, the tested form may be a part): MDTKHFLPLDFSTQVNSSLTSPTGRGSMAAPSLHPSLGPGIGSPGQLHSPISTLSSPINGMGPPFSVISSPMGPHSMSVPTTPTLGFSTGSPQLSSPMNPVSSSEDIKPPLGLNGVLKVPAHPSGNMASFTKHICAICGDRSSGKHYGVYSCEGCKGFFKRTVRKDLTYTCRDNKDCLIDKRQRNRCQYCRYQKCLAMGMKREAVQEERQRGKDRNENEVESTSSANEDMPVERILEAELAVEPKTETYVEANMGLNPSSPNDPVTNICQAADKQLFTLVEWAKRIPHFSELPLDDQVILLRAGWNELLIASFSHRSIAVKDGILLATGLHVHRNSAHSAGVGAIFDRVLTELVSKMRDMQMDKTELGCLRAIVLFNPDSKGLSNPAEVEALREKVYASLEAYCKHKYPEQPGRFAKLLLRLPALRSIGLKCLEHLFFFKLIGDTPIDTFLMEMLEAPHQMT
- ASSAY_PROCEDURE: Z3 assay: β-galactosidase (LacZ) reporter gene fold induction in stably transformed human 293 kidney cells (clone Z3)
- Assay type: cell-based
- ASSAY_CONDITIONS: read-out: Z3 LC50; average; dose response, three-parameter logistic model
Reported log10 CC50 values for the following compounds.
Values reflect log10 of reported CC50 (µM).

Reported log10 CC50 ( "COc1cccc(C(=O)NC2(C(=O)c3ccc(F)c(C)c3)CCCCC2)c1C" ) = 0.53

Reported log10 CC50 ( "COc1cc(C(=O)C2(NC(=O)c3cccc(OC)c3C)CCCCC2)cc(OC)c1C" ) = 0.52

Reported log10 CC50 ( "CCC(CC)(NC(=O)c1cccc(OC)c1C)C(=O)c1ccccc1OC" ) = 0.79

Reported log10 CC50 ( "COc1cccc(C(=O)NC2(C(=O)c3cc(C)cc(C)c3)CCOCC2)c1C" ) = 1.00

Reported log10 CC50 ( "COc1cccc(C(=O)NC2(C(=O)c3cccc(C)c3)CCCCC2)c1C" ) = 0.55

Reported log10 CC50 ( COc1cccc(C(=O)NC(C)(Cc2ccccc2)C(=O)c2cc(C)cc(C)c2)c1C (stereo not drawn) ) = 1.00

Reported log10 CC50 ( "COc1ccccc1C(=O)C1(NC(=O)c2cccc(OC)c2C)CCCCC1" ) = -0.01

----------
- ASSAY_TARGET: Bombyx mori EcR (VP16 fusion, switch construct CVBE) with 6XEcRE LacZ reporter (Bombyx mori, UniProt P49881)
- Construct: expressed in transfected cells; host or cells: Human 293 kidney (HEK-293) cells, retrovirally infected, clone Z3
- ASSAY_PROCEDURE: Z3 assay: β-galactosidase (LacZ) reporter gene fold induction in stably transformed human 293 kidney cells (clone Z3)
- Format: cell-based
- ASSAY_CONDITIONS: maximum fold induction at any concentration relative to that of GS-E ligand
Label rule, in plain words: Z3 Rel Max FI of 0.7 and up is Y, under 0.7 is N.

Consider the following illustrative entries.
COc1cccc(C(=O)NC2(C(=O)c3cc(C)cc(C)c3)CCCCC2)c1C    Y
COc1cccc(C(=O)NC2(C(=O)c3ccc(C)cc3)CCCC2)c1C    N
COc1cccc(C(=O)NC2(C(=O)c3cc(C)cc(C)c3)CCCC2)c1C    Y
COc1cccc(C(=O)C2(NC(=O)c3cccc(OC)c3C)CCCCC2)c1    N
COc1cccc(C(=O)NC2(C(=O)c3cccc(C)c3)CCSCC2)c1C    N

Incoming: Is it the case that "CCC(CC)(NC(=O)c1cccc(OC)c1C)C(=O)c1ccccc1" has Z3 Rel Max FI reaching or exceeding 0.7?
Outgoing: N

Incoming: Is it the case that COc1ccccc1C(=O)C(C)(NC(=O)c1cccc(OC)c1C)C(C)C (stereo not drawn) has Z3 Rel Max FI reaching or exceeding 0.7?
Outgoing: N

Incoming: Is it the case that COc1cccc(C(=O)NC(C)(C(=O)c2cc(C)cc(C)c2)C(C)C)c1C (stereo not drawn) has Z3 Rel Max FI reaching or exceeding 0.7?
Outgoing: Y

Incoming: Is it the case that COc1cccc(C(=O)C(C)(CC(C)C)NC(=O)c2cccc(OC)c2C)c1 (stereo not drawn) has Z3 Rel Max FI reaching or exceeding 0.7?
Outgoing: N

Incoming: Is it the case that "CC(C)(NC(=O)c1ccc(Cl)cc1)C(=O)c1ccccc1" has Z3 Rel Max FI reaching or exceeding 0.7?
Outgoing: Y

Incoming: Is it the case that "COc1cccc(C(=O)NC2(C(=O)c3cccc(C)c3)CCOCC2)c1C" has Z3 Rel Max FI reaching or exceeding 0.7?
Outgoing: N

Incoming: Is it the case that "CCCCC(=O)C1(NC(=O)c2cccc(OC)c2C)CCCCC1" has Z3 Rel Max FI reaching or exceeding 0.7?
Outgoing: N

Incoming: Is it the case that "COc1cccc(C(=O)NC2(C(=O)c3ccc(F)c(C)c3)CCCCC2)c1C" has Z3 Rel Max FI reaching or exceeding 0.7?
Outgoing: N

Incoming: Is it the case that "Cc1cc(C)cc(C(=O)C2(NC(=O)c3ccc4c(c3)OCCO4)CCCCC2)c1" has Z3 Rel Max FI reaching or exceeding 0.7?
Outgoing: Y

----------
- ASSAY_TARGET: Gal4 DBD/AaEcR (DEF) with VP16-βRXR-E (Aedes aegypti, UniProt P49880)
- Construct: The wildtype D, E, and F domains from mosquito Aedes aegypti EcR (“AaEcR-DEF”); expressed in transfected cells; host or cells: 3T3 cells, transient transfection (Superfect)
- Sequence (P28704 286-520 A311G/G315S/G445S/I449V): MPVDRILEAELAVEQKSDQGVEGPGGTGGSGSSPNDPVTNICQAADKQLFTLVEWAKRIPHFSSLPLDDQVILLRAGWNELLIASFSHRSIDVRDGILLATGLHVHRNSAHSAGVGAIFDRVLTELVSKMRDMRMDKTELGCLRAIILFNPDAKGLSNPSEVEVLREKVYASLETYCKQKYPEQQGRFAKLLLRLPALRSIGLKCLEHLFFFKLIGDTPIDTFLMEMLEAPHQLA
- Sequence (P49880 405-776): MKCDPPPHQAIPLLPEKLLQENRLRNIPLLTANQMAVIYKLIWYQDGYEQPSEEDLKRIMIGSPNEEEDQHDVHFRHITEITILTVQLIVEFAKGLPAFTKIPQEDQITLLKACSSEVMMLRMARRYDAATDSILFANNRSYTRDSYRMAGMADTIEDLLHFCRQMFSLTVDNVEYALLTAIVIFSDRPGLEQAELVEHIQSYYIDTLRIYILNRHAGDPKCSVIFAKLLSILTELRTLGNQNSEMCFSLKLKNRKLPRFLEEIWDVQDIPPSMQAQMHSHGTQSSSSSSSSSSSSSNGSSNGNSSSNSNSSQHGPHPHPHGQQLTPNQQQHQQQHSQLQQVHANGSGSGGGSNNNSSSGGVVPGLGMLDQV
- ASSAY_PROCEDURE: cell-based
- Type: cell-based
- ASSAY_CONDITIONS: single dose 33 μM; RLU ligand treated / RLU DMSO treated cells
- Experimental: 3T3 cells were trypsinized and plated at 2.5×10^3 cells/well on a 96-well plate. After incubation for 24 h at 37° C. under 5% CO2, cells were transfected with the Gal4 DBD/AaEcR (DEF) gene expression cassette and the reporter plasmid, pFRLuc, containing a 5XGAL4 response element and the firefly luciferase gene in serum free media using Superfect (Qiagen). After transfection for 4 h at 37° C., the cells were treated with ligand in serum media. […] Single dose testing was performed at 33 μM.
PROPERTY_LABEL: Fold Induction Average, AA_3T3 Assay (33 μM)
Provide a numeric answer; units are not to be included.

Example entries begin here.
Cc1cc(C)cc(C(=O)C2(NC(=O)c3ccccc3C)CCCC2)c1 [Example 89]    78
CCc1ccc(C(=O)NC2(C(=O)c3cc(C)cc(C)c3)CCCC2)cc1 [Example 138]    2134
CCC(=O)C(C)(C)NC(=O)c1ccccc1C [Example 124]    2

Reported Fold Induction Average, AA_3T3 Assay (33 μM) ( COc1ccccc1C(=O)C(C)(C)NC(=O)c1cccc(OC)c1C [Example 74] ) = 4

Reported Fold Induction Average, AA_3T3 Assay (33 μM) ( COc1cccc(C(=O)NC2(C(=O)c3cc(C)cc(C)c3)CCCC2)c1 [Example 137] ) = 115

Reported Fold Induction Average, AA_3T3 Assay (33 μM) ( CCC(=O)C(C)(C)NC(=O)c1ccc(CC)cc1 [Example 125] ) = 1

Reported Fold Induction Average, AA_3T3 Assay (33 μM) ( COc1cccc(C(=O)NC2(C(=O)c3ccc(C)cc3)CCCC2)c1C [Example 79] ) = 12

Reported Fold Induction Average, AA_3T3 Assay (33 μM) ( CCc1c(OC)cccc1C(=O)NC1(C(=O)c2cc(C)cc(C)c2)CCCC1 [Example 144] ) = 2339

Reported Fold Induction Average, AA_3T3 Assay (33 μM) ( CCOC(=O)C(=O)N1CCCC(NC(=O)c2cccc(OC)c2C)(C(=O)c2cc(C)cc(C)c2)C1 (racemic) [Example 154] ) = 2

Reported Fold Induction Average, AA_3T3 Assay (33 μM) ( COc1cccc(C(=O)NC2(C(=O)c3cc(C)cc(C)c3)CCCCCC2)c1C [Example 71] ) = 1277

----------
Reported 13B3 Rel Max FI values for the following compounds.
- ASSAY_TARGET: GAL4 DBD-CfEcR(DEF)/VP16AD-MmRXRE (Choristoneura fumiferana)
- Sequence (O77240 1-513): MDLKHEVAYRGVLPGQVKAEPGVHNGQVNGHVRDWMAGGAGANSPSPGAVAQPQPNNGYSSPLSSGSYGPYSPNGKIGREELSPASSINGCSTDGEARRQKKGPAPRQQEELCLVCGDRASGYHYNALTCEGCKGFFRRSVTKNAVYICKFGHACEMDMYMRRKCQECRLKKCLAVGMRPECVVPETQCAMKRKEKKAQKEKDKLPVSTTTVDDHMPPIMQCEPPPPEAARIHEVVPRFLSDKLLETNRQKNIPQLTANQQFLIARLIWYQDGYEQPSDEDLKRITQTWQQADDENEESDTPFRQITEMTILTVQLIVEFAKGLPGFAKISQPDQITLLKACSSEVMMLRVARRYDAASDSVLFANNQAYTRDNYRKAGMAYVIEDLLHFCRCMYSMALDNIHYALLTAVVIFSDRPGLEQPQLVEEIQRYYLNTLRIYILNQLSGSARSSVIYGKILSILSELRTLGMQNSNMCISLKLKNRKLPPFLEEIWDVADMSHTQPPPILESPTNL
- ASSAY_PROCEDURE: cell-based
- ASSAY_CONDITIONS: maximum fold induction at any concentration relative to that of GS-E ligand

COc1cccc(C(=O)NC2(C(=O)c3ccc(F)c(C)c3)CCCCC2)c1C    0.29
COc1cccc(C(=O)NC2(C(=O)c3ccccc3)CCCC2)c1C    0.00
COc1cccc(C(=O)NC2(C(=O)c3ccc(F)c(C)c3)CCCC2)c1C    0.01

Reported 13B3 Rel Max FI ( "COc1cccc(C(=O)NC2(C(=O)c3cc(C)cc(C)c3)CCS(=O)(=O)CC2)c1C" ) = 0.00

Reported 13B3 Rel Max FI ( "COc1cccc(C(=O)NC2(C(=O)c3cc(C)cc(C)c3)CCOCC2)c1C" ) = 0.36

Reported 13B3 Rel Max FI ( "COc1cccc(C(=O)NC2(C(=O)c3cc(F)c(F)c(OC)c3)CCCC2)c1C" ) = 0.50

Reported 13B3 Rel Max FI ( "COc1ccccc1C(=O)C1(NC(=O)c2cccc(OC)c2C)CCCC1" ) = 0.58

Reported 13B3 Rel Max FI ( COc1cccc(C(=O)NC(C)(C(=O)c2cccc(C)c2)C(C)C)c1C (centres unmarked) ) = 0.08
